# tested_on: C-X-C chemokine receptor type 4 (Homo sapiens, UniProt P61073)
# Sequence (P61073 whole entry): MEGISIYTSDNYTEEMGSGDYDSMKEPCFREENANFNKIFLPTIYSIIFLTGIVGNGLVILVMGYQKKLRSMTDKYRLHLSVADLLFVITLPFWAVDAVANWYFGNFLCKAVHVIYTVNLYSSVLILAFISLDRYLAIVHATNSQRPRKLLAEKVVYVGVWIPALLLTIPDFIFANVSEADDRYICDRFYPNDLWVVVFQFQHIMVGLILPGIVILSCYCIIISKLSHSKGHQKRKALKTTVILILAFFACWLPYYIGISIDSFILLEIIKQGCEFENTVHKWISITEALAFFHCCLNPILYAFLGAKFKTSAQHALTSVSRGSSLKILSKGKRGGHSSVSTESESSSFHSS
# assay_explanation: Antagonist activity at CXCR4 in human CD4+ T cells assessed as inhibition of CXCL12-mediated cytosolic calcium level preincubated with compounds followed by CXCL12 stimulation by calcium 4 dye-based FLIPR assay
# Format: functional, cell-based
Give measured IC50 for each item. Keep answers brief.
Answers are plain numbers, in nM.

Known IC50 results, listed for orientation:
molecule	tested_on	unit	IC50
CN1CCN(c2cc(CN(C)[C@@H]3CCCc4cccnc43)ncn2)CC1	C-X-C chemokine receptor type 4 (Homo sapiens, UniProt P61073)	nM	68
CN1CCN(c2cc(CN(C)C3CCCc4cccnc43)ncn2)CC1.Cl (stereo not drawn)	C-X-C chemokine receptor type 4 (Homo sapiens, UniProt P61073)	nM	2.3

Now consider the entry below.
Prompt line: Could you share which IC50 value was measured for CN1CCN(c2cc(CN(C)[C@H]3CCCc4cccnc43)ncn2)CC1 ?
Response line: 0.73
